- Tested on: Wolbachia pipientis
- assay-protocol: Anti-Wolbachia Cell-Based Screen
- Assay type: functional
- Design: scale not given: in the data most compounds retested in dose-response had high values
- condition-details: 5 µM
Hit rate of the full screen: of about 48,000 compounds, about 13,000 (27%) showed an effect of 50% or more. The list shows a part of the results.
quantity-kind: Percent Effect (%)
Give bare numbers, in %.

Before answering, review these 5 worked examples.
>>> observed("Cc1nc(-c2ccsc2)sc1C(=O)N1CCn2c(C)nnc2C1")
-8.635
>>> observed("Cc1nc2c(c(N3CCCOCC3)n1)CCN(C(=O)N1CCCC1)CC2")
0.8074
>>> observed("Cc1csc2c(=O)n3c(nc12)CCN(C(=O)c1ccccn1)CC3")
118.3
>>> observed("O=C(Nc1cc(F)ccc1OCC1CCCO1)c1ccccn1 (centres undefined)")
-3.019
>>> observed("Cc1nc(N2CCOCC2)nc2c1CCN(c1nccs1)CC2")
1.797

The following molecules each have a reported value; give each one's Percent Effect.
1. Cc1cnn(CC2CCCCN2Cc2nnc(C3CC3)n2C)c1 (centres undefined)
2. O=C(CCNC(=O)c1ccc(Cl)cc1)NCc1nc(C2CC2)no1
3. CC(COc1ccccc1)NCc1nc(-c2cccnc2)no1 (centres undefined)
4. Cc1cnn(CC2CN(Cc3nnc(C4CC4)n3C)CCO2)c1 (centres undefined)
5. CCC(=O)N1CCN(C(=O)Nc2ccc(Cl)cc2)[C@H]2CS(=O)(=O)C[C@H]21
6. CCN(C)c1ccc(C(=O)N(CCOC)Cc2ccccn2)cc1
7. COCCN(Cc1ccoc1)C(=O)c1ccccn1

[0.7799, -6.02, -6.485, 99.89, 20.51, -4.982, 112.1]

The following molecules each have a reported value; give each one's Percent Effect.
1. Cn1ccnc1COc1ccc(NC(=O)CCC2CCCO2)cc1 (centres undefined)
2. Cc1nn(C)c2ncc(NC(=O)N(C)Cc3cc(Cl)cn3C)cc12
3. COc1ccc(CN(C)C(=O)NC(C)c2nncn2C)cc1F (centres undefined)
4. O=C(Nc1cc(F)ccc1OCC1CCCO1)N1CCCC1 (centres undefined)
5. CCN(CC)C(=O)CN(C)C(=O)c1cc(-c2cccc(Cl)c2)no1
6. CC(C)(C)c1nnc2n1C(C(=O)N1CCCC1)CC2 (centres undefined)
7. Cc1cnn(CC2CCCN2Cc2nnc(C3CC3)n2C)c1 (centres undefined)

[7.737, -3.854, -30.44, 75.82, -12, 107.6, 103.3]

The following molecules each have a reported value; give each one's Percent Effect.
1. CC(=O)N1CCC(Nc2cc(F)ccc2OCC2CCCO2)CC1 (centres undefined)
2. FC(F)(F)Cn1ccnc1CN1CCCC1c1noc(C2CC2)n1 (centres undefined)

1. 103.1
2. 2.411
